Cited source for all entries: ChEMBL document CHEMBL1137063

# measured-target: UniProt:P32305
# Sequence (P32305 whole entry): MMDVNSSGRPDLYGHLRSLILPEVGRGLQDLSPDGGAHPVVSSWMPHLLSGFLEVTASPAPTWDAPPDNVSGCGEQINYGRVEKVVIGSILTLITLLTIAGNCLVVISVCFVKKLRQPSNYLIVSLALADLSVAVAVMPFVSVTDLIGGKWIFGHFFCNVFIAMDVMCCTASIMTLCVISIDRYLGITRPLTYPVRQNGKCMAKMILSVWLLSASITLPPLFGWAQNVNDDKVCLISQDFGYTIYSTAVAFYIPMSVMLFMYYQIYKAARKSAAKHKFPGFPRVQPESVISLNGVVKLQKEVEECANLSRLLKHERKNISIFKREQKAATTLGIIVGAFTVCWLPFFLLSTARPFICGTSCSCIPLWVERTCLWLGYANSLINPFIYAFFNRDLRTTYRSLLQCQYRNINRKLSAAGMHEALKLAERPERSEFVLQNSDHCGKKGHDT
# protocol-text: In vitro ability to displace the radioligand [3H]5-CT from binding to rat 5-hydroxytryptamine 7 receptor
pKi: −log10 of the molar value.
measured-endpoint: pKi

COc1ccccc1N1CCN(Cc2ccccc2CN2C(=O)CCC2=O)CC1: 6.04

I: COc1ccccc1N1CCN(C/C=C\CN2C(=O)CCC2=O)CC1
II: COc1ccccc1N1CCN(C/C=C/CN2C(=O)c3ccccc3C2=O)CC1
III: COc1ccccc1N1CCN(C/C=C/CN2C(=O)CCC2=O)CC1
IV: COc1ccccc1N1CCN([C@H]2CC[C@H](N3C(=O)CCC3=O)CC2)CC1
V: COc1ccccc1N1CCN([C@H]2CC[C@H](N3C(=O)c4ccccc4C3=O)CC2)CC1
Please produce an ascending ranking of these compounds based on pKi. Give me the labels in the order the question wants.
IV, V, I, III, II

----------
# measured-target: UniProt:P19327
# Sequence (P19327 whole entry): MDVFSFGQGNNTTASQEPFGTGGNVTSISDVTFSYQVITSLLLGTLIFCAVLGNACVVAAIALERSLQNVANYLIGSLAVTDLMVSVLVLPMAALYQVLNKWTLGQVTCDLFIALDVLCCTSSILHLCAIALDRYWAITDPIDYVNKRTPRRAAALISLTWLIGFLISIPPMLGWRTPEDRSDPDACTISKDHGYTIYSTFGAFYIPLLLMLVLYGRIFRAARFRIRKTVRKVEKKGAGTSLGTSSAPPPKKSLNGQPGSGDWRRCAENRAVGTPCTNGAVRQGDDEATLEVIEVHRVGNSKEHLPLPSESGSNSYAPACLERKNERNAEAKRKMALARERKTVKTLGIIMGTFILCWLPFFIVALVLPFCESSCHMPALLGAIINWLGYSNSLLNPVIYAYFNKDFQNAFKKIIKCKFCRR
measured-endpoint: Ki (µM)

// worked examples, Ki included
COc1ccccc1N1CCN([C@H]2CC[C@H](N3C(=O)c4ccccc4C3=O)CC2)CC1: 0.008
COc1ccccc1N1CCN(C/C=C\CN2C(=O)CCC2=O)CC1: 0.157

1: COc1ccccc1N1CCN(Cc2ccccc2CN2C(=O)c3ccccc3C2=O)CC1
2: COc1ccccc1N1CCN(C/C=C\CN2C(=O)c3ccccc3C2=O)CC1
3: COc1ccccc1N1CCN(C/C=C/CN2C(=O)CCC2=O)CC1
In this exercise, place the 3 compounds in ascending sequence of their recorded Ki. As an answer, provide the labels arranged in the order called for.
3, 2, 1
(3: 0.029 µM, 2: 0.077 µM, 1: 0.405 µM)
